assay: Compound 1 single dose rat PK study; assay type: in vivo, male Sprague Dawley rats; settings: male, Sprague Dawley, plasma, po, 5 mg/kg, single po dose 5 mg/kg, individual rats, read-out: Cmax
OUTCOME MEASURE: Cmax (ng/mL)
Numbers only, in ng/mL.

What does the record list as Cmax for `CC(=O)N1CCc2c(C(=O)N3CCC(c4ccc(F)c(F)c4C(F)(F)F)CC3)n[nH]c2C1` ?
456

###

assay: Compound 1 single dose rat PK study; format: in vivo, male Sprague Dawley rats; details: male, Sprague Dawley, plasma, po, 5 mg/kg, single po dose 5 mg/kg, individual rats
OUTCOME MEASURE: AUC(0-t) (ng·h/mL)
Numbers only, in ng·h/mL.

What does the record list as AUC(0-t) for CC(=O)N1CCc2c(C(=O)N3CCC(c4ccc(F)c(F)c4C(F)(F)F)CC3)n[nH]c2C1 [Compound 1] ?
3170

###

assay: Compound 1 single dose mouse PK study; type: in vivo, male CD-1 mice; conditions: male, CD-1, plasma, single iv dose 2 mg/kg
OUTCOME MEASURE: AUC(0-inf) (ng·h/mL)
One number for each entry, in ng·h/mL.

What does the record list as AUC(0-inf) for CC(=O)N1CCc2c(C(=O)N3CCC(c4ccc(F)c(F)c4C(F)(F)F)CC3)n[nH]c2C1 [Compound 1] ?
2460

###

Experiment: Compound 1 single dose mouse PK study
Format: in vivo, male CD-1 mice
Details: male, CD-1, plasma, single iv dose 2 mg/kg
Procedure: A pharmacokinetic study of Compound 1 following a single intravenous or oral dose administration to male CD-1 mice was conducted, the results of which are found in Table 4 and FIGS. 15-20.
OUTCOME MEASURE: AUC(0-t) (ng·h/mL)
One number for each entry, in ng·h/mL.

What does the record list as AUC(0-t) for `CC(=O)N1CCc2c(C(=O)N3CCC(c4ccc(F)c(F)c4C(F)(F)F)CC3)n[nH]c2C1` ?
2400

###

test: Compound 1 single dose non-human primate PK study; format: in vivo, Cynomolgus Macaques; conditions: cynomolgus monkey, plasma, iv, 1 mg/kg, NHP, single iv dose 1 mg/kg, Mean of the 3 animals
OUTCOME MEASURE: half-life (h)
One number for each entry, in h.

What does the record list as half-life for CC(=O)N1CCc2c(C(=O)N3CCC(c4ccc(F)c(F)c4C(F)(F)F)CC3)n[nH]c2C1 [Compound 1] ?
7.7

###

assay: Compound 1 single dose rat PK study; type: in vivo, male Sprague Dawley rats; conditions: male, Sprague Dawley, plasma, iv, 2 mg/kg, single iv dose 2 mg/kg, individual rats, read-out: t1/2 (converted)
OUTCOME MEASURE: half-life (min)
Give bare numbers, in min.

What does the record list as half-life for CC(=O)N1CCc2c(C(=O)N3CCC(c4ccc(F)c(F)c4C(F)(F)F)CC3)n[nH]c2C1 [Compound 1] ?
516

###

Assay: Compound 1 single dose mouse PK study
Type: in vivo, male CD-1 mice
Details: male, CD-1, single iv dose 2 mg/kg, first plasma collection time
Procedure: A pharmacokinetic study of Compound 1 following a single intravenous or oral dose administration to male CD-1 mice was conducted, the results of which are found in Table 4 and FIGS. 15-20.
OUTCOME MEASURE: Tmax
Please answer in the form of a number followed by its unit of measurement.

What does the record list as Tmax for `CC(=O)N1CCc2c(C(=O)N3CCC(c4ccc(F)c(F)c4C(F)(F)F)CC3)n[nH]c2C1` ?
4.8 min

The values you see were collected from patent US20220354844A1.
